# Test Target: recombinant human Meningioma Expressed Antigen 5 (MGEA5), also referred to as O-GlcNAcase (OGA) (Homo sapiens, UniProt O60502)
# Construct: Full length OGA enzyme was purchased at OriGene (cat #TP322411); purchased OriGene TP322411
# Sequence (O60502 1-916): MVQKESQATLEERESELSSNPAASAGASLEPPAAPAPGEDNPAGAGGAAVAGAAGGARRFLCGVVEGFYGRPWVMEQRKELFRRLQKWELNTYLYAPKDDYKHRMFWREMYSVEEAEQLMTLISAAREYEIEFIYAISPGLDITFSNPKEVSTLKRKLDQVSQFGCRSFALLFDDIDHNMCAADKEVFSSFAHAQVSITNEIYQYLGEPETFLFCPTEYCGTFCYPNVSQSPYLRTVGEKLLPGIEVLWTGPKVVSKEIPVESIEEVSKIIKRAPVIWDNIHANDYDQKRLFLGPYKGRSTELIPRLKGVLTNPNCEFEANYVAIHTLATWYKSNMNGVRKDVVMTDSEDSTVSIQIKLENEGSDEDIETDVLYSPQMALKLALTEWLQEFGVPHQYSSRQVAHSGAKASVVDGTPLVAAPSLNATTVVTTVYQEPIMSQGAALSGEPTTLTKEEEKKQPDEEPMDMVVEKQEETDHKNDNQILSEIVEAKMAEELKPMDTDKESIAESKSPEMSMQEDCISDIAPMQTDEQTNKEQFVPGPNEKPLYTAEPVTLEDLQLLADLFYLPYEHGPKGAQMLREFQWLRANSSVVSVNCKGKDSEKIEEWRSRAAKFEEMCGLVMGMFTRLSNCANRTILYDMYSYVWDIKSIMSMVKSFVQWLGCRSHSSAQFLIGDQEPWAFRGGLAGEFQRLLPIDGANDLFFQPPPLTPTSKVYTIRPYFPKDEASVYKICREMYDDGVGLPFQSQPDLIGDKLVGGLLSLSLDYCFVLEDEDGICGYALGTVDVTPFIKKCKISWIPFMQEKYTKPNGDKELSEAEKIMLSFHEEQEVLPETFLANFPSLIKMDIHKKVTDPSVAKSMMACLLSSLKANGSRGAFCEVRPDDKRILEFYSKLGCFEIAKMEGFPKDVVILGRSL
# Assay Details: OGA biochemical assay (inhibition of FM-GlcNAc hydrolysis, fluorescence)
# Condition: FM-GlcNAc substrate, maximal effect, read-out: Enzymatic Emax (%)
Experimental Readout: Emax (%)

Cc1cc(NC[C@H]2CCCN(C(C)c3ccc4sc(C)nc4n3)C2)nc(C)n1 (some centres unmarked) [Compound 108] = 101
Cc1cc(C[C@H]2CCN(C(C)c3cnc4nc(C)oc4c3)C2)cc(C)n1 (some centres unmarked) [Compound 63] = 103
Cc1cc(C[C@H]2CCCN([C@H](C)c3ccc4cn(C)nc4n3)C2)cc(C)n1 (relative stereo) [Compound 12b] = 100
Cc1cc(OC[C@H]2CCCN(C(C)c3ccc4sc(C)nc4n3)C2)cc(C)n1 (mixture of isomers) [Compound 46ab] = 101
Cc1cc(C[C@H]2CCCN([C@H](C)c3ccc4oc(C)nc4n3)C2)cc(OC(F)(F)F)n1 [Compound 25a] = 101
COc1cc(C2CCCN(C(C)c3cnc4[nH]c(C)nc4c3)C2)cc(C)n1 (centres unmarked) [Compound 2] = 97

I. COc1cc(C[C@@H]2CCN(C(C)c3ccc4sc(C)nc4n3)C2)cc(C)n1 (mixture of isomers) [Compound 44]
II. COc1cc(C[C@@H]2CCN(C(C)c3ccc4sc(C)nc4n3)C2)cc(C)n1 (single isomer, unassigned) [Compound 97]
Compare I and II by numeric Emax and name the larger one. Respond with the label that goes with your answer.
I
(I: 99%, II: 56%)

Source: patent US20210115040A1
